Reported values of MIC Enterococcus faecium (GC 4556) for individual entries
Test system: Enterococcus sp.
Test: in vitro antibacterial evaluation, MIC by broth dilution
Assay type: cell-based
Settings: Enterococcus faecium (GC 4556); broth dilution, 18 hours at 35° C.
Numbered stars: 1 amine (or outer) side, 2 acyl side, 3 side chain; on linkers, the order of the positions; unused ones are H or OH. Square brackets hold non-standard residues; d marks the D form. Peptide text beside a SMILES is read from it. * marks the point of attachment. ξ: configuration not given here. X1 = N=C1NCC(C(O)C(N[*:1])C(=O)[*:2])N1C1OC(CO)C(O)C(O)C1O; ξEnduracididine(βξ-OH,4'ξ) = N=C1NCC(C(O)C(N)C(=O)O)N1; X2 = OCC1OC(OC2C(CO)OC(*)C(O)C2O)C(O)C(O)C1O

molecule	target_under_test	units_of_measure	measurement_qualifier	MIC Enterococcus faecium (GC 4556)
N=C1NCC(C(O)C2NC(=O)C(Cc3ccc(OC4OC(CO)C(OC5OC(CO)C(O)C(O)C5O)C(O)C4O)cc3)NC(=O)C(Cc3ccccc3)NC(=O)CNC(=O)C(CO)NC(=O)C(C(O)C3CNC(=N)N3C3OC(CO)C(O)C(O)C3O)NC2=O)N1 (stereo not drawn) [Example 282] (cyclo(GFY(X2)[ξEnduracididine(βξ-OH,4'ξ)][X1]S); configuration not given here)	Enterococcus sp.	µg/mL	>	128
CCC(CC)C1OCC2OC(OC3C(CO)OC(Oc4ccc(CC5NC(=O)C(C(C)c6ccccc6)NC(=O)CNC(=O)C(CO)NC(=O)C(C(O)C6CNC(=N)N6C6OC(CO)C(O)C(O)C6O)NC(=O)C(C(O)C6CNC(=N)N6)NC5=O)cc4)C(O)C3O)C(O)C(O)C2O1 (stereo not shown)	Enterococcus sp.	µg/mL	=	2
CC(c1ccccc1)C1NC(=O)CNC(=O)C(CO)NC(=O)C(C(O)C2CNC(=N)N2C2OC(CO)C(O)C(O)C2O)NC(=O)C(C(O)C2CNC(=N)N2)NC(=O)C(Cc2ccc(OC3OC(CO)C(OC4OC5COC(CC6CCN(C(=O)OCc7ccccc7)CC6)OC5C(O)C4O)C(O)C3O)cc2)NC1=O (stereo not shown)	Enterococcus sp.	µg/mL	=	2
CC(c1ccccc1)C1NC(=O)CNC(=O)C(CO)NC(=O)C(C(O)C2CNC(=N)N2C2OC(CO)C(O)C(O)C2O)NC(=O)C(C(O)C2CNC(=N)N2)NC(=O)C(Cc2ccc(OC3OC(CO)C(OC4OC5COC(CCc6ccccc6)OC5C(O)C4O)C(O)C3O)cc2)NC1=O (stereo not shown)	Enterococcus sp.	µg/mL	=	4
CC(c1ccccc1)C1NC(=O)CNC(=O)C(CO)NC(=O)C(C(O)C2CN(Cc3ccc4ccccc4c3)C(=N)N2C2OC(CO)C(O)C(O)C2O)NC(=O)C(C(O)C2CNC(=N)N2)NC(=O)C(Cc2ccc(OC3OC(CO)C(OC4OC(CO)C(O)C(O)C4O)C(O)C3O)cc2)NC1=O (stereo not shown)	Enterococcus sp.	µg/mL	>	128
CC(C)=CCCC(C)=CCN=C1NCC(C(O)C2NC(=O)C(C(O)C3CNC(=N)N3)NC(=O)C(Cc3ccc(OC4OC(CO)C(OC5OC6COC7(OC6C(O)C5O)C5CC6CC(C5)CC7C6)C(O)C4O)cc3)NC(=O)C(C(C)c3ccccc3)NC(=O)CNC(=O)C(CO)NC2=O)N1C1OC(CO)C(O)C(O)C1O (stereo not shown)	Enterococcus sp.	µg/mL	=	16
CC(c1ccccc1)C1NC(=O)CNC(=O)C(CO)NC(=O)C(C(O)C2CN(Cc3ccc4ccccc4c3)C(=N)N2C2OC(CO)C(O)C(O)C2O)NC(=O)C(C(O)C2CNC(=N)N2)NC(=O)C(Cc2ccc(OC3OC(CO)C(OC4OC5COC6(OC5C(O)C4O)C4CC5CC(C4)CC6C5)C(O)C3O)cc2)NC1=O (stereo not shown)	Enterococcus sp.	µg/mL	=	16
